# assay.comment: In vivo administration test 1: intravenous administration, plasma concentration by LC-MS/MS
# Parameters: species or system cynomolgus monkeys
# experimental.conditions: cynomolgus monkey; male cynomolgus monkeys, intravenous, single dose 1 mg/kg, plasma; read-out: AUC value
# Experimental: Each enantiomer (S(+) form or R(−) form) of MA5 was dissolved in a mixed solution of physiological saline and 0.1 N sodium hydroxide (9:1), and filtered and sterilized by using a 0.22 μm filter to prepare a solution containing 2 mL/kg of each enantiomer of MA5. […] The MS conditions were detected in negative ion mode, a spray voltage set to 2.5 kV, a vaporizer temperature set to 250° C., and an ion transfer tube temperature set to 250° C. […]
In this section, each of the molecules is paired with its reported AUC.
Your answer is read as ng·h/mL, so omit the unit and give the number.

O=C(C[C@@H](C(=O)O)c1c[nH]c2ccccc12)c1ccc(F)cc1F [R(−) form of MA5] ... 12000

Give its AUC value. Item: O=C(C[C@H](C(=O)O)c1c[nH]c2ccccc12)c1ccc(F)cc1F [S(+) form of MA5]
30000

----------
# assay.comment: In vivo administration test 1: intravenous administration, plasma concentration by LC-MS/MS
# Design: species or system cynomolgus monkeys
# experimental.conditions: cynomolgus monkey; male cynomolgus monkeys, intravenous, single dose 1 mg/kg, plasma
# Method: Each enantiomer (S(+) form or R(−) form) of MA5 was dissolved in a mixed solution of physiological saline and 0.1 N sodium hydroxide (9:1), and filtered and sterilized by using a 0.22 μm filter to prepare a solution containing 2 mL/kg of each enantiomer of MA5. […] The MS conditions were detected in negative ion mode, a spray voltage set to 2.5 kV, a vaporizer temperature set to 250° C., and an ion transfer tube temperature set to 250° C. […]
property.measured: half-life (h)
Please state the figure in h; there is no need to write the unit.

O=C(C[C@H](C(=O)O)c1c[nH]c2ccccc12)c1ccc(F)cc1F [S(+) form of MA5] ... 2.4

Okay, now this molecule:
Which value of half-life has been reported for O=C(C[C@@H](C(=O)O)c1c[nH]c2ccccc12)c1ccc(F)cc1F [R(−) form of MA5] in the records?
1.1
